test system: Staphylococcus sp.; experiment: Antibacterial activity against methicillin-resistant coagulase-negative Staphylococcus sp. by CLSI dilution method; assay type: functional
value type: MIC50

Any idea what MIC50 was measured for C[C@H]1COc2c(N3CCN(C)CC3)c(F)cc3c(=O)c(C(=O)O)cn1c23.C[C@H]1COc2c(N3CCN(C)CC3)c(F)cc3c(=O)c(C(=O)O)cn1c23.O [LEVOFLOXACIN] ?
4 µg/mL

Any idea what MIC50 was measured for Cc1onc(-c2ccccc2)c1C(=O)N[C@@H]1C(=O)N2[C@@H]1SC(C)(C)[C@@H]2C(=O)O [OXACILLIN] ?
32 µg/mL

Any idea what MIC50 was measured for CN[C@H](CC(C)C)C(=O)N[C@H]1C(=O)N[C@@H](CC(N)=O)C(=O)N[C@H]2C(=O)N[C@H]3C(=O)N[C@H](C(=O)N[C@H](C(=O)O)c4cc(O)cc(O)c4-c4cc3ccc4O)[C@H](O)c3ccc(c(Cl)c3)Oc3cc2cc(c3O[C@@H]2O[C@H](CO)[C@@H](O)[C@H](O)[C@H]2O[C@H]2C[C@](C)(N)[C@H](O)[C@H](C)O2)Oc2ccc(cc2Cl)[C@H]1O [VANCOMYCIN] ?
1 µg/mL

Any idea what MIC50 was measured for CN(C)[C@@H]1C(O)=C(C(N)=O)C(=O)[C@@]2(O)C(O)=C3C(=O)c4c(O)cccc4[C@@](C)(O)[C@H]3C[C@@H]12 [TETRACYCLINE] ?
2 µg/mL

Any idea what MIC50 was measured for CCC[C@@H]1C[C@@H](C(=O)N[C@@H]([C@H]2O[C@H](SC)[C@H](O)[C@@H](O)[C@H]2O)[C@H](C)Cl)N(C)C1 [CLINDAMYCIN] ?
> 128 µg/mL

Any idea what MIC50 was measured for CC(=O)NC[C@H]1CN(c2ccc(N3CCOCC3)c(F)c2)C(=O)O1 [LINEZOLID] ?
1 µg/mL

Any idea what MIC50 was measured for CC[C@H]1OC(=O)[C@H](C)[C@@H](O[C@H]2C[C@@](C)(OC)[C@@H](O)[C@H](C)O2)[C@H](C)[C@@H](O[C@@H]2O[C@H](C)C[C@H](N(C)C)[C@H]2O)[C@](C)(O)C[C@@H](C)C(=O)[C@H](C)[C@@H](O)[C@]1(C)O [ERYTHROMYCIN] ?
128 µg/mL

Any idea what MIC50 was measured for Cc1c(N)cccc1Cn1ccc(OCCc2cccs2)cc1=O [CG-400549] ?
0.5 µg/mL
